# Tgt: Follistatin-related protein 3 (Homo sapiens)
# Experimental protocol: FSTL3 binders on small-molecule microarrays, primary screen, biochemical, small-molecule microarray, 635 nm fluorescence (AID 1105);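 note: score merges emission near 667 nm and signal to noise per printed spot across three slides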
# Condition details: FSTL3 binding, higher = more signal
Measurement type: composite z-score
Just the number, please, no unit attached.

Solved entries:
# Compound, Numeric readout
data = [
    ("COc1ccc([Si](C)(C)[C@@H]2[C@@H](CC(=O)N3Cc4ccccc4C[C@H]3CO)O[C@]3(C(=O)N(Cc4ccc(I)cc4)c4ccccc43)[C@H]2C)cc1", 1.36),
    ("C=CCC(OC(C)=O)[C@@H]1[C@@H](N(Cc2ccc(-c3ccccc3)cc2)C(=O)Cc2ccc(OC)cc2)c2cc(OCCCO)ccc2N1C(=O)c1ccc2ccccc2c1 (some centres not stated)", 0.538),
    ("CCCCC(=C=CC[C@@H](O)c1ccc(OCCO)cc1)CCO", -0.281),
]

Data request: Using the record for COC(=O)C1=CC(c2ccc(CO)cc2)=CC(C2CC2)N(Cc2cc3c(cc2Br)OCO3)C=C1C(=O)OC (configuration not stated) , report its composite z-score.
Data returned: 0.89

Data request: Next up: COCCCNC(=O)[C@]1(Cc2ccccc2N=[N+]=[N-])N=C(c2ccc(OCCCO)cc2)O[C@@H]1c1ccccc1
Data returned: 0.597

Data request: Try CC[C@@H](O[Si](C#C[Si](C(C)C)(C(C)C)C(C)C)(C(C)C)C(C)C)c1cn([C@H](CO)Cc2ccccc2)nn1 next.
Data returned: 0.675

Data request: Would you mind doing Cc1ccc(S[C@]2(C(=O)NC3CC3)CC(=O)N(C3Cc4ccccc4C3)[C@@H]2c2ccc(CO)cc2I)cc1 as well?
Data returned: -1.11

###

# Tgt: Neurogenic locus notch homolog protein 3 (Homo sapiens)
# Experimental protocol: NOTCH3 binders on small-molecule microarray, primary screen, biochemical, 635/667 nm fluorescence (AID 1096)
# Condition details: NOTCH3 binding, 635 nm fluorescence, higher = more signal
Measurement type: composite z-score

# Structure as smiles, Tgt, composite z-score
data = [
    ("CCOC(=O)C[C@H]1[C@H](OC(=O)Cc2ccc3c(c2)OCO3)[C@@H](NC(=O)CC(C)C)c2cc(OCCCO)ccc2N1C(=O)c1ccc2ccccc2n1", "Neurogenic locus notch homolog protein 3 (Homo sapiens)", 0.647),
    ("CCOC(=O)C[C@H]1[C@H](OC(=O)c2cc3ccccc3oc2=O)[C@@H](NC(=O)Cc2ccc(OC)cc2)c2cc(OCCCO)ccc2N1C(=O)Cc1ccc(OC)cc1", "Neurogenic locus notch homolog protein 3 (Homo sapiens)", 0.91),
    ("CCOC(=O)C=C1C[C@@H](c2cccc([N+](=O)[O-])c2)O[C@@H](c2cccc([N+](=O)[O-])c2)O1", "Neurogenic locus notch homolog protein 3 (Homo sapiens)", 1.12),
    ("COc1cccc(C)c1NC(=O)O[C@H]1[C@H](OC(=O)Nc2ccccc2-c2ccccc2)[C@@H](OC(=O)Nc2ccccc2-c2ccccc2)[C@@H](OC)O[C@@H]1CO", "Neurogenic locus notch homolog protein 3 (Homo sapiens)", 0.542),
    ("O=C(CS)NCCCCCCNC(=O)[C@H]1C[C@H]2C(=O)NCC(=O)N2[C@H]1c1cccc(OCCO)c1", "Neurogenic locus notch homolog protein 3 (Homo sapiens)", 0.471),
]

Next, consider the following compound.
Data request: Item under review: COCCOC(=O)N1C(=O)[C@@]2(c3cc(C#CCCO)ccc31)[C@H](c1ccc(O)cc1)N1[C@H](c3ccccc3)[C@H](c3ccccc3)OC(=O)[C@H]1[C@@H]2C(=O)NC[C@H](O)c1ccccc1 . Reported composite z-score?
Data returned: 1.03
